B1: HESX1 (parent)
chain: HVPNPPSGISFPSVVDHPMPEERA

Variants of: B1
Assay: protein stability index of a GFP-peptide fusion (GPS, HEK-293T) (PSI 1-6); higher = more stable;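 further: lentivirally expressed fusions sorted by FACS into six bins by GFP to DsRed ratio, PSI derived from sequencing read proportions per bin multiplied by bin number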
Settings: c terminus: a fixed tail appended
Rule: criterion met for protein stability index not less than 3, criterion not met for anything less.

Answered cases to consult:
HVPNPPSGISFPSYVDHPMPEERA
criterion met
HVPNPPSGISDPSVVDHPMPEERA
criterion met
HVPNPCSGISFPSVVDHPMPEERA
criterion not met
HVPNPPSGDSFPSVVDHPMPEERA
criterion met
HVPNPPSGISFPSVVDHPFPEERA
criterion not met
HVPNPPSGISFPHVVDHPMPEERA
criterion not met
HCPNPPSGISFPSVVDHPMPEERA
criterion met
HVPNPPSGISIPSVVDHPMPEERA
criterion met
HVPNPPSGISFPSVVDHPMPEEIA
criterion not met
HVPNPPSGISFFSVVDHPMPEERA
criterion not met

Request: Check this variant for protein stability index at or above 3: HVPNPPSGISFPSVVYHPMPEERA
Result: criterion not met

Request: Exam item: decide whether the reported protein stability index for HVPNPPSGISFPSVVDKPMPEERA is at least 3.
Result: criterion not met

Request: Is reported protein stability index greater than or equal to 3 here: HIPNPPSGISFPSVVDHPMPEERA
Result: criterion met

Request: Quick check: does HVPNPPSGISFPSVVDHPMPEQRA have protein stability index greater than or equal to 3?
Result: criterion not met

Request: Determine whether measured protein stability index meets or exceeds 3 for HVPNPPSGISFESVVDHPMPEERA
Result: criterion met

Request: Check this variant for protein stability index at or above 3: HVPNPPSGISFPSVVVHPMPEERA
Result: criterion not met

Request: Form field: protein stability index at least 3? Entry: HVPNPPSGISFPSVVDHPMPIERA
Result: criterion not met

Request: Confirm if protein stability index reported for the variant HVPNPPSGISFPSVVDHPMPEPRA is 3 or above.
Result: criterion not met

Request: Check this variant for protein stability index at or above 3: HVPNPPSGSSFPSVVDHPMPEERA
Result: criterion met

Request: Threshold query (protein stability index >= 3) on HVPNPPSGISFPSVVDHPMPEARA
Result: criterion not met

Request: Does protein stability index meet or surpass 3 for HVPNPPSGISFPQVVDHPMPEERA ?
Result: criterion not met

Request: Threshold query (protein stability index >= 3) on HVPNPPSGISFPSVVDFPMPEERA
Result: criterion not met

Request: Does the variant HVPNPPSGISFPSVVDHPMPCERA have recorded protein stability index that is 3 or more?
Result: criterion not met
